experiment_notes: TOR pathway RTG branch CIT2 reporter changes – S. cerevisiae, GFP fusion, multiplex flow cytometry, primary screen (AID 1870);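 also: barcoded CIT2-GFP strain pooled with four other GFP strains with rapamycin as positive control; median GFP fluorescence per well over plate mean of DMSO wells so 100% = DMSO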
assay_context: S. cerevisiae CIT2-GFP expression, 3 h, at 10 µM, hits give high values
readout: percent response of DMSO control (%)
Please give a number only; it is taken to be in %.

# compound, unit, percent response of DMSO control
rows = [
    ("Cc1ccc(Cl)c(Nc2ccccc2C(=O)O)c1Cl", "%", 94.4),
    ("CC1=C/C(=N\\N=C2\\NC(=O)C(CC(=O)Nc3ccccc3F)S2)CC(C)(C)C1 (configuration not stated)", "%", 86),
    ("CN(C)CCOC(=O)C(c1ccccc1)C1(O)CCCC1 (configuration not stated)", "%", 97.9),
    ("COc1cccc2c(=O)c(C/C=C(/C)Cl)c(C)[nH]c12", "%", 101),
    ("CC(C)CCn1c(N2CCc3ccccc3C2)nc2c1c(=O)[nH]c(=O)n2C", "%", 108),
    ("C[C@H](NC(=O)C1(c2ccccc2)CCN(C(=O)[C@H]2CSCN2C(=O)OC(C)(C)C)CC1)C(=O)O", "%", 99.6),
]

Given item Cc1c(NC(=O)c2cccs2)cccc1[N+](=O)[O-] , the value recorded as its percent response of DMSO control is 102
